assay: Identification of proteins required for the processing of the EWS-FLI1 nascent transcript; details: TC32 Ewing sarcoma NR0B1-luc vs CMV-luc (EWS-FLI1 target promoter against control promoter), 48 h; screened at 20 nM (by protocol);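 note: robust z of luciferase light less the median z of siRNAs with the same seed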
The full ranking holds about 59,000 sequences; the median of the read-out is about -0.00055, and the lowest 2% start at about -2. Only a selection was taken, and the lowest values are over-represented in it overall.
Output true (1) for records whose seed-corrected z-score is lower than -0.3, false (0) for records at or above -0.3.

{"SEQUENCE_CODE": "UCUCUGUACCCAACUCCGC against ZNF212", "CATEGORY": "true (1)"}
{"SEQUENCE_CODE": "UUUAUCACCAGGUUAAGCC against GLUD1", "CATEGORY": "false (0)"}
{"SEQUENCE_CODE": "UCAAGCAUCGUGUUGAGCC against TGFBI", "CATEGORY": "true (1)"}
{"SEQUENCE_CODE": "UCUCUGUAUCGUAUGGUGG against NTN4", "CATEGORY": "true (1)"}
{"SEQUENCE_CODE": "UGACUUAUGAACAUCAAAG against KLHL31", "CATEGORY": "true (1)"}
{"SEQUENCE_CODE": "AUUGUAAUCGCGAAUAUCC against MESDC2", "CATEGORY": "false (0)"}
